Each entry below carries its reported MIC 90%.
System: VanA vancomycin-resistant E. faecalis (11)
Assay: MIC broth microdilution, VanA E. faecalis
Conditions: E. faecalis, VanA (11)
Give the number; µg/mL is assumed, so skip it.

| molecule | MIC 90% (µg/mL) |
| --- | --- |
| CNC(CC(C)C)C(=O)NC1C(=O)NC(CC(N)=O)C(=O)NC2C(=O)NC3C(=O)NC(C(=O)NC(C(=O)O)c4cc(O)c(CNCCOCCOCCOCCN(C)C)c(O)c4-c4cc3ccc4O)C(O)c3ccc(c(Cl)c3)Oc3cc2cc(c3OC2OC(CO)C(O)C(O)C2OC2CC(C)(NCc3ccc(-c4ccc(Cl)cc4)cc3)C(O)C(C)O2)Oc2ccc(cc2Cl)C1O (centres unmarked) [Compound 14] | 16 |

Next molecule, please.
// MIC 90% value for CNC(CC(C)C)C(=O)NC1C(=O)NC(CC(N)=O)C(=O)NC2C(=O)NC3C(=O)NC(C(=O)NC(C(=O)O)c4cc(O)c(CNCCOCCOCC[N+](C)(C)C)c(O)c4-c4cc3ccc4O)C(O)c3ccc(c(Cl)c3)Oc3cc2cc(c3OC2OC(CO)C(O)C(O)C2OC2CC(C)(NCc3ccc(-c4ccc(Cl)cc4)cc3)C(O)C(C)O2)Oc2ccc(cc2Cl)C1O (centres unmarked) [Compound 13] : 16
